Where do the numbers come from? From paper PMC5201133.

Molecular target: A3AR (Homo sapiens)
Sequence (P0DMS8 1-318): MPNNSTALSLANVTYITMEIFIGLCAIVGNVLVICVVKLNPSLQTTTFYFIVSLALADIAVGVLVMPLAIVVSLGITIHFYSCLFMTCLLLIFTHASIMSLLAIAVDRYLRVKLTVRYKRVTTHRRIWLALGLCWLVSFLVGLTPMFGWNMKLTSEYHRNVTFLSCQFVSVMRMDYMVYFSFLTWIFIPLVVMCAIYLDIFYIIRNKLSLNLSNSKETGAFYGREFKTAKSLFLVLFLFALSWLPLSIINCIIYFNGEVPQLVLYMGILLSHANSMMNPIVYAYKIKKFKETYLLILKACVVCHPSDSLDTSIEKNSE
Experiment: A3AR binding, [125I]46
quantityMeasured: pKi
// field semantics: pKi = negative decimal log of concentration (mol/L)

Lab note: measured pKi of NCCNC(=O)[C@@]12C[C@@H]1[C@@H](n1cnc3c(NC(C4CC4)C4CC4)nc(Cl)nc31)[C@H](O)[C@@H]2O [compound 31] was 5.09
